- System Under Test: T1, mouse transferrin receptor (mTfR) fused to EGFP, on CHO cells (mouse, UniProt Q62351 1-763)
- T1 construct: whole, on cells; also called mouse TfR; CHO-mTfR-EGFP; not shown: EGFP
- T1 sequence (Q62351 whole entry, the tested form may be a part): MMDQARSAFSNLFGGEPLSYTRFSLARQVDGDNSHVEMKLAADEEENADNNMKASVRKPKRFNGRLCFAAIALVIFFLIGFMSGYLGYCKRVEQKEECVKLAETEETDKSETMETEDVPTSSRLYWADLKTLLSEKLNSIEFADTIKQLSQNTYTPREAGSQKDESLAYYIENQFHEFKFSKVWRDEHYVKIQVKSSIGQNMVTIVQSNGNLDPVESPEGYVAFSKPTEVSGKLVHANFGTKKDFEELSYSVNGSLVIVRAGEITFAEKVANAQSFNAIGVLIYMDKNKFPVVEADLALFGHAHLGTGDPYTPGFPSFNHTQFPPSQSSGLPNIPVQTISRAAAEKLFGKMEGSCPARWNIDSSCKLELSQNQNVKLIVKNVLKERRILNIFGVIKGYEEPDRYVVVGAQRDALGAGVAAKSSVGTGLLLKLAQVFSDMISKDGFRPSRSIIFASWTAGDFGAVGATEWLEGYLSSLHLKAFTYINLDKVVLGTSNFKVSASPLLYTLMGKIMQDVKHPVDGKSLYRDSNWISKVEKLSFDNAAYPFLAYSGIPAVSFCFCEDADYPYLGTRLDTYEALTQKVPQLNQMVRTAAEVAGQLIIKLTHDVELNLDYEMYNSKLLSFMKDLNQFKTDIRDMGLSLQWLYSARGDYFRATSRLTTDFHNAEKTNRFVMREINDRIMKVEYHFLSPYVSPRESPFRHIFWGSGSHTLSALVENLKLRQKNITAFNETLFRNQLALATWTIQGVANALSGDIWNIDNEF
- Method Notes: apparent Kd, flow cytometry, CHO cells
Measure Name: Kd (nM)
Numbers only, in nM.

As a guide, the following entries are already answered.
Binder	Measure Name	Value
C5^V20 (VHH) VHH: EVQLVESGGGVVQPGGSLKLSCVASGHDFSINFIRWYRQAPGKQREFVAGFTATGNTNYADSMKGRFTISRDNTKNAVYLQIDSLKPEDTAVYYCYMLDKWGQGTQVTVSS	Kd	125
VHH A21 (C5^h2) (VHH) VHH: EVQLVESGGGVVQPGGSLRLSCAASGTDFSINFIRWVRQAPGKQREFVAGFTATGNTNYADSVKGRFTISRDNAKNTLYLQMNSLRPEDTAVYYCYMLDKWGQGTQVTVSS	Kd	225
C5^V24 (VHH) VHH: EVQLVESGGGVVQPGGSLKLSCVASGTDFSINFIRWYRQAPGKQREFVAGFTATGNTNYADSMKGRFTISRDNTKNAVYLQIDSLKPEDTAVYYCWMLDKWGQGTQVTVSS	Kd	218

Now turn to the next binder.
[in] Please give the measured Kd for this binder: B8^V12 (VHH) VHH: EVQLVESGGGVVQPGGSLRLSCAASGEIFYINFMRWYRQAPGKQREWVAGFTRDGSTNYPDSAKGRFTISRDNAKNTVYLQIDSLKPEDTAVYYCYMLDTWGQGTQVTVSS
[out] 743
